EXPERIMENTAL SYSTEM: Fibroblast growth factor 22 (Homo sapiens)
METHOD DESCRIPTION: FGF22 melting temperature shift by ligands – biophysical, thermal shift, cherry-pick retest, FGF22 synaptogenesis inhibitor project, dose response (AID 720646)
RUN CONDITIONS: recombinant FGF22 thermal shift, SYPRO orange fluorescence
Calls of active or inactive are those of the source.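 How the source made its calls: active means fitted rise in melting shift crosses a set limit at or below the top valid dose tested; inconclusive means flat fit at mid-level activity, or a poor quality fit; inactive means the rest.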
Assign a class; possible classes are active, inactive

Reference set, count: 3
INSERT INTO measurements (test_smiles, category_label) VALUES
  ('O=C(O)c1[nH]c2ccc(Br)cc2c1CCN1C(=O)c2cccc([N+](=O)[O-])c2C1=O', 'inactive'),
  ('O=S1(=O)N=C(N(Cc2cccs2)c2ccc(O)cc2)c2ccccc21', 'active'),
  ('N#Cc1ccc(NC(=O)Nc2cccc(C#N)c2)cc1', 'active');

# evaluate next
Qu. Please state the recorded outcome for this compound: Cn1c(=O)c2c(-c3ccccc3)n(-c3cc(Cl)c([N+](=O)[O-])cc3O)cc2n(C)c1=O
Ans. active

Source of measurements: PubChem BioAssay AID720646
